molecular target: T1, mouse Sortilin Fc fusion protein (mouse; human, UniProt Q6PHU5 74-754); test: ForteBio, avid;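 also: whole IgG captured on AHQ sensors, then contacted with Sortilin Fc fusion antigen at 100 nM, followed by an off-rate phase in buffer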
T1 construct: whole entry named; also called mSort-Fc
VALUE TYPE: Kd (nM)
Give just the number in nM; leave the unit off.

Look over these answered cases.
| BINDER | QUANTITATIVE RESULT |
| --- | --- |
| S-21 (antibody, V domains shown, IgG) VH: QVQLVQSGAEVKKPGSSVKVSCKASGGTFSSYAISWVRQAPGQGLEWMGSIIPIFGTANYAQKFQGRVTITADESTSTAYMELSSLRSEDTAVYYCARERRYDGYYYYYGMDVWGQGTTVTVSS VL: DIQMTQSPSSLSASVGDRVTITCRASQSISSYLNWYQQKPGKAPKLLIYAASSLQSGVPSRFSGSGSGTDFTLTISSLQPEDFATYYCQQKASLPFTFGGGTKVEIK | 2.8 |
| S-73 (antibody, V domains shown, IgG) VH: QVQLQESGPGLVKPSQTLSLTCTVSGGSISSGTYYWSWIRQHPGKGLEWIGYIYYSGSTYYNPSLKSRVTISVDTSKNQFSLKLSSVTAADTAVYYCARGVGRYRVADYWGQGTLVTVSS VL: EIVLTQSPATLSLSPGERATLSCRASQSVSSYLAWYQQKPGQAPRLLIYDASNRATGIPARFSGSGSGTDFTLTISSLEPEDFAVYYCQQASVYPPITFGGGTKVEIK | 19.7 |

Continue with the binder presented below.
Quick check: Kd of S-18 (antibody, V domains shown, IgG) VH: QVQLVQSGAEVKKPGSSVKVSCKASGGTFSSYAISWVRQAPGQGLEWMGSIIPIFGTANYAQKFQGRVTITADESTSTAYMELSSLRSEDTAVYYCARDKHGRRGYYYYMDVWGKGTTVTVSS VL: EIVLTQSPATLSLSPGERATLSCRASQSVSSYLAWYQQKPGQAPRLLIYDASNRATGIPARFSGSGSGTDFTLTISSLEPEDFAVYYCQQGANAPPRTFGGGTKVEIK ? 2.3

Taken from patent US20220185898A1.
